# Tested on: Neuregulin-1 EGF-like domain
# Test: binders of neuregulin-1 EGF-like domain, primary screen, biochemical, small-molecule microarray, 635 nm fluorescence (AID 1081);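 note: binding of the protein to compounds printed on small-molecule microarray slides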
# Condition set: small-molecule microarray binding, higher = more signal
The following compounds are listed with their measured composite z-score values.
Reported metric: composite z-score

>>> recorded_measurement("COC(=O)C(CC#Cc1ccc2c(c1)[C@]1(C(=O)N2)[C@H](C(=O)O)[C@H]2C(=O)O[C@H](c3ccccc3)[C@H](c3ccccc3)N2[C@@H]1c1ccccc1OCCO)C(=O)OC")
1.21
>>> recorded_measurement("NCCCCCNC(=O)[C@@H]1C[C@@H]2C(=O)N[C@@H](CCCCN)C(=O)N2[C@@H]1c1cccc(OCCO)c1")
0.969
>>> recorded_measurement("CC1CC/C=C\\[C@H]2OC34C=CCN(C(C)C)C(=O)[C@H]3N(CCCCCO)C(=O)[C@@H]4C2C(=O)O1 (some centres not stated)")
0.0093
>>> recorded_measurement("CC(C)(C)OC(=O)CC[C@]1(C(=O)NCCN2CCOCC2)N=C(c2ccc(OCCCO)cc2)O[C@H]1c1ccccc1N=[N+]=[N-]")
1.39
>>> recorded_measurement("C[C@@H]1ON(c2ccc(C(=O)OC(C)(C)C)cc2)[C@H](c2ccc(Br)cc2)[C@H]1C(=O)N1C(=O)OC[C@H]1Cc1ccccc1")
1.11
>>> recorded_measurement("C=CC[C@]12N=C(c3ccc(OCCCO)cc3)O[C@H]1c1ccccc1N(C)C2=O")
1.22
>>> recorded_measurement("COC(=O)[C@@]1(Cc2ccc(OC)cc2)[C@H]2c3cc(C(=O)N(C)C)n(Cc4ccccc4)c3C[C@H]2CN1C(=O)c1ccccc1")
0.828
